Values compiled from patent US20220251562.

Molecular target: CD3 epsilon/delta heterodimer (Homo sapiens, UniProt P07766;P04234 P07766:23-126,P04234:22-105)
Sequence (P07766 23-126, stated change not applied, chain 1 of 2): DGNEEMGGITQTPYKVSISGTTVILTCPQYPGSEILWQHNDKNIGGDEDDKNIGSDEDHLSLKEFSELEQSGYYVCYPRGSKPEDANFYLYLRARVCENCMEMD
Sequence (P04234 22-105, stated change not applied, chain 2 of 2): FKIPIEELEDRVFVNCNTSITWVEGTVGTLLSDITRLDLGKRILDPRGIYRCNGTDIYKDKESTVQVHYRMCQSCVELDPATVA
Test: SPR; steady state; kinetic 3.2 nM (Table 6)
Details: tags: C-terminal human IgG1 Fc fusion, AcroBiosystems; chain copies: heterodimer 1:1 (inferred); label: 5'-biotin-TEG
measured_property: Kd

Need Kd of GATGGAGGGTTTGGCGGTGGGCCTGGCAAGTTATCTCATA (ssDNA) [CELTIC_11s] , thanks.
138 nM
